// data source = the supplement of paper PMC9112550

Test system: Escherichia coli TOP10
MEASUREMENT NOTES: shrunken log2 fold change of peptide-encoding DNA abundance (4.5 h post-induction vs induction); higher = less antimicrobial activity (less host growth inhibition)
CONDITION LABEL: time post-induction: 4.5 h; library: site-saturation at positions 5, 18, 19, 20
Can you tell me shrunken log2 fold change for the items I'm about to list?
# answer = number (no unit)

IN: Report shrunken log2 fold change for `RRIRYRPPRLPRPRPRPTWCPRP`
OUT: -0.544

IN: State its shrunken log2 fold change: `RRIRMRPPRLPRPRPRPPHFPRP`
OUT: 1.03

IN: Please list shrunken log2 fold change recorded for the sequence `RRIRERPPRLPRPRPRPFQTPRP`
OUT: 0.11

IN: Tell me measured shrunken log2 fold change for `RRIRYRPPRLPRPRPRPKLSPRP` please.
OUT: -0.204

IN: Indicate its recorded shrunken log2 fold change; the sequence in question is `RRIRDRPPRLPRPRPRPPMPPRP`
OUT: 0.203

IN: # return recorded shrunken log2 fold change for entry `RRIRYRPPRLPRPRPRPRDNPRP`
OUT: -0.712

IN: Identify the reported shrunken log2 fold change for the following entry. `RRIRTRPPRLPRPRPRPCQYPRP`
OUT: -0.293

IN: Give the measured shrunken log2 fold change for `RRIRYRPPRLPRPRPRPTLCPRP`
OUT: -0.239

* * *

System: Escherichia coli TOP10
MEASUREMENT NOTES: shrunken log2 fold change of peptide-encoding DNA abundance (4.5 h post-induction vs induction); higher = less antimicrobial activity (less host growth inhibition)
CONDITION LABEL: time post-induction: 4.5 h; library: site-saturation at positions 5, 18, 19, 20
METRIC: shrunken log2 fold change
Write the value as a bare number.

IN: Name the recorded shrunken log2 fold change of the sequence listed here: `RRIRRRPPRLPRPRPRPVCRPRP`
OUT: 0.562

IN: Supply reported shrunken log2 fold change belonging to this sequence: `RRIRFRPPRLPRPRPRPAHQPRP`
OUT: -0.15

IN: Tell us which shrunken log2 fold change value is on record for `RRIRTRPPRLPRPRPRPNRAPRP`
OUT: -0.244

IN: Hello, please tell me recorded shrunken log2 fold change for this one: `RRIRIRPPRLPRPRPRPKRRPRP`
OUT: 0.123

IN: Could you please provide reported shrunken log2 fold change for `RRIRMRPPRLPRPRPRPVWTPRP` ? Thanks!
OUT: 0.386

IN: Read the entry `RRIRCRPPRLPRPRPRPDKLPRP` and write its reported shrunken log2 fold change.
OUT: 0.0152

IN: Report shrunken log2 fold change for `RRIRHRPPRLPRPRPRPKWFPRP`
OUT: -0.233

IN: Please report shrunken log2 fold change for the following sequence: `RRIRNRPPRLPRPRPRPKEEPRP`
OUT: 0.0169

* * *

Assign shrunken log2 fold change to each entry below.
System: Escherichia coli TOP10
MEASUREMENT NOTES: shrunken log2 fold change of peptide-encoding DNA abundance (4.5 h post-induction vs induction); higher = less antimicrobial activity (less host growth inhibition)
CONDITION LABEL: time post-induction: 4.5 h; library: site-saturation at positions 5, 18, 19, 20
Note: the reply should be a number with no unit written.

IN: Consider the sequence `RRIRKRPPRLPRPRPRPILSPRP` and give its recorded shrunken log2 fold change.
OUT: 0.00626

IN: Give the reported value of shrunken log2 fold change for this record: `RRIRQRPPRLPRPRPRPPFSPRP`
OUT: -0.0357

IN: Answer with the recorded shrunken log2 fold change of `RRIRPRPPRLPRPRPRPDYCPRP` only.
OUT: -0.367

IN: Tell me shrunken log2 fold change reported for `RRIRLRPPRLPRPRPRPEPDPRP`
OUT: 0.342

IN: Answer with reported shrunken log2 fold change of `RRIRIRPPRLPRPRPRPGARPRP`
OUT: 0.251

IN: Specify shrunken log2 fold change for `RRIRGRPPRLPRPRPRPDRVPRP` and stop.
OUT: 0.311

IN: Give me measured shrunken log2 fold change, please, for this sequence: `RRIRDRPPRLPRPRPRPFSKPRP`
OUT: -0.488

IN: Please report shrunken log2 fold change for the following sequence: `RRIRNRPPRLPRPRPRPSYCPRP`
OUT: -0.267

IN: Specify shrunken log2 fold change for `RRIRFRPPRLPRPRPRPNKCPRP` and stop.
OUT: -0.273

IN: Give the measured shrunken log2 fold change for `RRIRWRPPRLPRPRPRPIGRPRP`
OUT: -0.0158

IN: Provide one value: measured shrunken log2 fold change of `RRIRIRPPRLPRPRPRPRPCPRP`
OUT: -0.0531

IN: State, in one line, measured shrunken log2 fold change of `RRIRHRPPRLPRPRPRPFWIPRP`
OUT: -0.364

IN: Return the recorded shrunken log2 fold change value; entry: `RRIRSRPPRLPRPRPRPMKWPRP`
OUT: 0.053

IN: Look up and state reported shrunken log2 fold change for `RRIRHRPPRLPRPRPRPRDWPRP`
OUT: 0.645

IN: Write down shrunken log2 fold change measured for item `RRIRTRPPRLPRPRPRPVFVPRP`
OUT: 0.0253

* * *

For each entry below, report its shrunken log2 fold change value.
Test system: Escherichia coli TOP10
MEASUREMENT NOTES: shrunken log2 fold change of peptide-encoding DNA abundance (4.5 h post-induction vs induction); higher = less antimicrobial activity (less host growth inhibition)
CONDITION LABEL: time post-induction: 4.5 h; library: site-saturation at positions 5, 18, 19, 20
Please give only the number in your answer, with no unit.

IN: Report measured shrunken log2 fold change on Escherichia coli TOP10; entry: `RRIRRRPPRLPRPRPRPRGEPRP`
OUT: 0.739

IN: Tell me shrunken log2 fold change of `RRIRKRPPRLPRPRPRPTISPRP` when tested on Escherichia coli TOP10.
OUT: -0.279

IN: State shrunken log2 fold change on Escherichia coli TOP10. Entry: `RRIRGRPPRLPRPRPRPTATPRP`
OUT: 3.4

IN: Give shrunken log2 fold change for this entry on Escherichia coli TOP10: `RRIRNRPPRLPRPRPRPVRTPRP`
OUT: 0.296

IN: Give shrunken log2 fold change; test system Escherichia coli TOP10; sequence `RRIRGRPPRLPRPRPRPCGDPRP`
OUT: 0.581

IN: Report value: shrunken log2 fold change, system: Escherichia coli TOP10, sequence: `RRIRCRPPRLPRPRPRPLCDPRP`
OUT: 0.54

IN: // fetch shrunken log2 fold change; item: `RRIRKRPPRLPRPRPRPKGTPRP` ; system: Escherichia coli TOP10
OUT: 0.00171

IN: Retrieve shrunken log2 fold change on Escherichia coli TOP10; query `RRIRVRPPRLPRPRPRPDQYPRP`
OUT: -0.234

IN: Would you please give the reported shrunken log2 fold change of `RRIRQRPPRLPRPRPRPTQMPRP` with Escherichia coli TOP10?
OUT: 0.0693

IN: Give the observed shrunken log2 fold change of `RRIRYRPPRLPRPRPRPDLHPRP` for Escherichia coli TOP10.
OUT: -0.0267

IN: Identify measured shrunken log2 fold change obtained with Escherichia coli TOP10 for `RRIRQRPPRLPRPRPRPSKRPRP` .
OUT: -0.188

IN: Enter shrunken log2 fold change (test system Escherichia coli TOP10) for `RRIRLRPPRLPRPRPRPDEDPRP`
OUT: 0.0258

IN: Determine reported shrunken log2 fold change for `RRIRERPPRLPRPRPRPDKLPRP` ; test system: Escherichia coli TOP10.
OUT: -1.81

IN: Recall the reported shrunken log2 fold change of `RRIRTRPPRLPRPRPRPVLYPRP` when tested on Escherichia coli TOP10.
OUT: -0.365

IN: Enter recorded shrunken log2 fold change with Escherichia coli TOP10 for `RRIRQRPPRLPRPRPRPCISPRP` here.
OUT: -0.177

IN: Report shrunken log2 fold change on Escherichia coli TOP10 for this entry: `RRIRERPPRLPRPRPRPVVHPRP`
OUT: -0.0247

IN: Under Escherichia coli TOP10: report shrunken log2 fold change of `RRIRPRPPRLPRPRPRPGVLPRP` .
OUT: 0.219

IN: Write shrunken log2 fold change of `RRIRVRPPRLPRPRPRPENGPRP` ; system used: Escherichia coli TOP10
OUT: -0.158

IN: Write down measured shrunken log2 fold change (Escherichia coli TOP10) for this sequence. `RRIRSRPPRLPRPRPRPIPCPRP`
OUT: -0.297

IN: GET shrunken log2 fold change | system: Escherichia coli TOP10 | item: `RRIRTRPPRLPRPRPRPCNRPRP`
OUT: -0.144

IN: Given `RRIRERPPRLPRPRPRPETFPRP` , report its shrunken log2 fold change on Escherichia coli TOP10.
OUT: -0.0158

IN: Provide measured shrunken log2 fold change on Escherichia coli TOP10 for `RRIRDRPPRLPRPRPRPFQFPRP` please.
OUT: -0.324

IN: Supply shrunken log2 fold change measured with Escherichia coli TOP10 for `RRIRTRPPRLPRPRPRPWQHPRP` .
OUT: -0.0511

IN: Report shrunken log2 fold change under test system Escherichia coli TOP10 for `RRIRYRPPRLPRPRPRPMHNPRP` .
OUT: 0.162

IN: Give shrunken log2 fold change for `RRIRFRPPRLPRPRPRPLFTPRP` tested on Escherichia coli TOP10.
OUT: -0.239

IN: Send back Escherichia coli TOP10 shrunken log2 fold change of `RRIRYRPPRLPRPRPRPNHMPRP` only.
OUT: -0.611

IN: Enter measured shrunken log2 fold change, system Escherichia coli TOP10, for the sequence shown: `RRIRIRPPRLPRPRPRPYAAPRP`
OUT: -0.563

IN: Find shrunken log2 fold change for `RRIRYRPPRLPRPRPRPMMEPRP` on Escherichia coli TOP10 and write it down.
OUT: -0.141

IN: Answer briefly: shrunken log2 fold change recorded on Escherichia coli TOP10 for `RRIRMRPPRLPRPRPRPQCAPRP`
OUT: 0.645

IN: Give the observed shrunken log2 fold change of `RRIRERPPRLPRPRPRPLGVPRP` for Escherichia coli TOP10.
OUT: -0.171

IN: GET shrunken log2 fold change where system = Escherichia coli TOP10 and item = `RRIRYRPPRLPRPRPRPFPHPRP`;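 note: peptides expressed intracellularly from a pBAD plasmid library in pooled LB shake-flask culture, induced with 0.3% L-arabinose, DNA abundance read by NGS, three biological replicates, DESeq2 with apeglm shrinkage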
OUT: -0.137

IN: State, for Escherichia coli TOP10, measured shrunken log2 fold change of the sequence listed here: `RRIRKRPPRLPRPRPRPMMTPRP`
OUT: 0.452
